These entries and their values trace back to patent US20240246960A1.

tested on: pH2AX induction in HCT116 ATM−/− multicellular tumour spheroids; experiment: Prodrug radiation sensitization in multicellular tumour spheroids (pH2AX induction following radiation); type: cell-based; conditions: Homo sapiens, HCT-116, 20 Gy, 20% O2, outer layers, read-out: Prodrug 20% O2 Outer layers EC50
EC50 values by entry

# MOLECULE, EC50
records = [
    ("CC(c1cnc([N+](=O)[O-])n1C)N(c1cnc2cc(N3CCOCC3)nc(OC3CCC(Nc4ncc(C(F)(F)F)cn4)CC3)c2c1)S(C)(=O)=O (stereo not drawn)", "10 to 100 µM"),
    ("Cn1c(CN(c2cnc3cc(N4CCOCC4)nc(OC4CCC(Nc5ccn6nccc6n5)CC4)c3c2)S(C)(=O)=O)cnc1[N+](=O)[O-] (stereo not drawn)", "1 to 10 µM"),
    ("CC(c1cnc([N+](=O)[O-])n1C)N(c1cnc2cc(N3CCOCC3)nc(OC3CCC(Nc4ccn5nccc5n4)CC3)c2c1)S(C)(=O)=O (stereo not drawn)", "10 to 100 µM"),
]
